- measurement.target: Cav3.1 channel (α3.1 subunit)
- measurement.notes: cell-based or functional assay
Everything with inhibition of Cav3.1 current at 30 µM peptide lower than 20% is 0.0; everything else, including exactly 20%, is 1.0.

Some solved cases for reference:
>>> class("LTTAGAFA [γ4 TM1a peptide]")
0.0
>>> class("VGLTLAVL [γ6 TM1b A50L peptide]")
0.0
>>> class("VGATLAVL [γ6 TM1b peptide]")
0.0
>>> class("LGLLFAFV [γ6 TM1a V45FI47F peptide]")
1.0
>>> class("LTLLVAIV [γ6 TM1a G42T peptide]")
0.0

Moving on to another binder below.
Task: Please indicate if the recorded inhibition of Cav3.1 current at 30 µM peptide for FGFLVAIV [γ6 TM1a L41FL43F peptide] meets or exceeds 20%.
Result: 1.0
